Target: T1, SmcR N55I (Vibrio vulnificus, UniProt Q9L8G8 1-205, N55I)
T1 sequence: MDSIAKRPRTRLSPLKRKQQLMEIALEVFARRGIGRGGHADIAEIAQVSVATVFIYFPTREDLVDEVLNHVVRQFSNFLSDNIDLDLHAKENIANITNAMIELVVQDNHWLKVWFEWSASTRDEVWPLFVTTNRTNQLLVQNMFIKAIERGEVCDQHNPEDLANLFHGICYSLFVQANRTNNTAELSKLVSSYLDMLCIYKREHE
Assay: EMSA
endpoint label: pKd
Convention used: pKd is expressed as -log10 of the molar concentration.

Consider the worked cases shown below.
Query block: Which measured pKd value corresponds to PluxC site E A17T (JDN46/JDN47) (dsDNA) DNA 1: TCTAATTATTGTTTGATTTATTTATAATTAGT DNA 2: ACTAATTATAAATAAATCAAACAATAATTAGA ?
Result block: 7.35

Query block: Which measured pKd value corresponds to PvvpM (AB316/AB317) (dsDNA) DNA 1: ACACTTATCTTTAGTGACAAACTCATAAATAGCAAGTTCTCACACGGTC DNA 2: GACCGTGTGAGAACTTGCTATTTATGAGTTTGTCACTAAAGATAAGTGT ?
Result block: 9.58

---
Query block: Which measured pKd value corresponds to PluxC site E T4A (JDN44/JDN45) (dsDNA) DNA 1: TCTAATTATAGTTTGATTTATTAATAATTAGT DNA 2: ACTAATTATTAATAAATCAAACTATAATTAGA ?
Result block: 7.87

Query block: Which measured pKd value corresponds to PvvpE (AB324/AB325) (dsDNA) DNA 1: ATAAATCAAATTTGTAACTTTATTTCTGAGATGACTGTCCCATTTATCTTATTGATAAATCTGCGTAAAAAAGAAAAAGCACAATTTTATTACTAGTGTTT DNA 2: AAACACTAGTAATAAAATTGTGCTTTTTCTTTTTTACGCAGATTTATCAATAAGATAAATGGGACAGTCATCTCAGAAATAAAGTTACAAATTTGATTTAT ?
Result block: 6.85

Query block: Which measured pKd value corresponds to PluxC site E T4A,A17T (JCV1107/JCV1108) (dsDNA) DNA 1: TCTAATTATTGTTTGATTTATTAATAATTAGT DNA 2: ACTAATTATTAATAAATCAAACAATAATTAGA ?
Result block: 8.72
